Where do these numbers come from? They come from the supplement of paper PMC4466140.

SYSTEM: CaCyk3
ASSAY OVERVIEW: SPOT peptide array binding signal intensity (averaged, normalized) (arbitrary units (background-subtracted, floor 0; scale differs between SH3 domains)); higher = stronger binding of the SH3 domain to the peptide
Outcome: Y for SPOT peptide array binding signal intensity of at least 8; N for anything lower.

BINDER	CLASSIFICATION
GATNNAPTLPKRKNP	N
NLPKRKPPKLQGPFS	Y
FSRRQSMDIPSKNRN	Y
HVRRSILALPLGVLL	N
AGKRRLPLVRFKASD	Y
TPEIPPPLPPKIMVH	N
VFQFQMPTTPISTKM	Y
TKPTPPPKPSHLKPK	N
VRTRRRPPPPPIPST	Y
QPWTDQFEKLEKEVS	N
SGVRLPAPPPPPRRG	Y
PKRRAPPPVPKKPSS	Y
EEEEEHPPLPARRKS	N
TSIEIPKRSPLRFTS	Y
NPTKSPPPPPSPSTM	N
RKNRAPPQRPRFNRD	Y
HPRFVSPRIPSRIVK	Y
SRSKPLPLTPNSKYN	N
GERSRPLVISILSSA	Y
GRSRLFPHSPLGRSS	N
GDHPKGPPPPPPPPD	N
FYNRTAFQLPGDARV	N
LLLLFVPDSPYDPAI	N
PLRRTVMSLPGNHDI	Y
VRVKKRPLIRPLNSS	Y
GDHPKGPPPPPPPDE	N
GPPPPLPPPLFPSSS	N
DDEDVPPQLPTRTKS	N
PELAPKREAPKPPAN	N
QQEQNTPPLPPKPKS	N
